- test details: Luminescence Cell-Based Dose Response HTS to Identify Inhibitors of 5'UTR Stem-Loop Driven Prion Protein mRNA Translation in H4 Neuroglioblastoma Cells. [Related pubchem assays: 1827 (Project Summary), 1813 (Primary HTS)]
- Type: functional
Active and inactive are the calls of the source.
Provide the recorded EC50 for the entries that follow.

Ask: So what does the record say about EC50 for O=S(=O)(c1ccc2c(c1)OCCO2)N1CCC(c2nc(O)c3nnn(Cc4ccccc4F)c3n2)CC1 ?
Result: > 120 µM (not active)

Ask: Another compound: CC(Nc1cc(N2CCNCC2)ccc1[N+](=O)[O-])c1ccccc1 (stereo not given)
Result: > 120 µM (not active)

Ask: Another compound: COc1cccc(-c2cc(C(F)(F)F)nc(-n3cc(Cl)cn3)n2)c1
Result: > 120 µM (not active)

Ask: Another compound: CC(C)Cc1nc2n[nH]c(N)c2c2c1COC(C)(C)C2
Result: > 120 µM (not active)

Ask: Another compound: CCc1nc(SCC(=O)N2c3ccccc3CC2C)c2c(C)c(C)sc2n1 (stereo not given)
Result: 18 µM (active)

Ask: Another compound: O=C(N/N=C/c1cc([N+](=O)[O-])ccc1Cl)c1cnccn1
Result: 9.8 µM (active)

Ask: Another compound: C1=C(c2cccc3ccccc23)N2CCN=C2S1
Result: > 120 µM (not active)

Ask: Another compound: CCn1c(C(=O)NC(C)c2ccc3c(c2)OCCO3)cc2sccc21 (stereo not given)
Result: 15.8 µM (active)

Ask: Another compound: COc1ccc(CNCCC(c2ccc(OC(C)C)cc2)c2ccccc2OC)cc1 (stereo not given)
Result: 113 µM (active)

Ask: Another compound: CCC[C@H](CN[C@@H](CNC)[C@H](C)CC)NCCc1cc(C(F)(F)F)cc(C(F)(F)F)c1
Result: 9.67 µM (active)

###

- target: Streptokinase A (Streptococcus pyogenes serotype M1, UniProt P10520)
- Sequence (P10520 whole entry): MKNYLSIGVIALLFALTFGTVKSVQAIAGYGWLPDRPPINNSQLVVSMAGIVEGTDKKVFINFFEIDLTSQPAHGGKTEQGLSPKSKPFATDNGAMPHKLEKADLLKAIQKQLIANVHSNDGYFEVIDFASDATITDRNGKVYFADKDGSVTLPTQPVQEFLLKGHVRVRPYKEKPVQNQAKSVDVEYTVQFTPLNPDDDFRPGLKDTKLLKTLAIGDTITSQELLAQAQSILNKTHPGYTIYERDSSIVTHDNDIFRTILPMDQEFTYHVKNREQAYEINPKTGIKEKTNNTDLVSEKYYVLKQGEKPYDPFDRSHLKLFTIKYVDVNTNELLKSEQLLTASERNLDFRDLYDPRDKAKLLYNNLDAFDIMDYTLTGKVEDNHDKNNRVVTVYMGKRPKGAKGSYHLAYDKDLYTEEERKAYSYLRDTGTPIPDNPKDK
- test details: viability-normalized secreted streptokinase activity reduction – plasminogen activation absorbance, OD405, dose response (AID 1914);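 also: secreted streptokinase activity via plasminogen activation per viability signal from cell pellet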
- Format: functional, Streptococcus pyogenes M1 GAS
The source made the active and inactive calls.
Provide the recorded EC50 for the entries that follow.

Ask: So what does the record say about EC50 for CCC(C)Sc1cc(-c2nc3ccc(C)cn3c2NCc2ccccc2)ccc1OC (stereo not given) ?
Result: 2.75 µM (active)

Ask: Another molecule: Fc1ccc(-[n+]2nc(Nc3ccccc3)sc2-c2c3ccccc3cc3ccccc23)cc1
Result: 3.22 µM (active)

Ask: Another molecule: Nc1c(S(=O)(=O)c2ccccc2)c2nc3ccccc3nc2n1/N=C/c1cccc(O)c1
Result: 23.6 µM (active)

Ask: Another molecule: Clc1ccc(-c2[nH]nc3c2CCC3)cc1Cl
Result: > 150 µM (not active)

Ask: Another molecule: Cc1cc(C)c2c(n1)sc1c(=O)n(CC(=O)c3ccccc3)cnc12
Result: > 150 µM (not active)

###

- Test system: SN12K1
- test details: cells
- Type: functional
- settings: Homo sapiens, SN12K1
The source made the active and inactive calls.
assay readout: GI50

Ask: So what does the record say about GI50 for CC(C)[C@](O)(C(=O)OCC1=CC[N+]2([O-])CC[C@@H](O)[C@@H]12)[C@H](C)O (some centres undefined) [INDICINE N-OXIDE] ?
Result: > 10000 µM (inactive)

Ask: Another molecule: CSc1nc(NC2OC(CO)C(O)C(O)C2O)c(N)c(=O)n1C (centres undefined)
Result: > 100 µM (inactive)

Ask: Another molecule: CCN(CC)CCCOC(=O)/C=C/c1c(C)[nH]c(=O)[nH]c1=O
Result: > 625 µM (inactive)

Ask: Another molecule: O=S(=O)(CCBr)CCBr
Result: 6.59 µM (inactive)
